Tested system: Dual specificity tyrosine-phosphorylation-regulated kinase 1A (Homo sapiens) (UniProt Q13627)
Assay conditions: at 0.1 µM
Description: GSK_PKIS: DYRK1A mean inhibition at 0.1 uM [Nanosyn]
Reported inhibition values follow for various compounds

{"columns": ["Smiles str", "inhibition (%)"],
 "data": [
  ["Nc1ncc(-c2cccc(S(N)(=O)=O)c2)c2scc(-c3ccc(F)c(Cl)c3)c12", 2.01],
  ["Nc1nc(-c2cccc(Cl)c2)c(-c2ccc3ncccc3n2)s1", 6.62],
  ["O=S(=O)(CCNCc1ccc(-c2ccc3ncnc(Nc4ccc(OCc5cccc(F)c5)c(Cl)c4)c3c2)o1)c1ccccc1", 3.49],
  ["COc1ccc(-c2nn3ncccc3c2-c2ccnc(Nc3ccc4c(c3)OCCO4)n2)cc1", -0.47],
  ["COc1cc2ncn(-c3cc(OCc4ccccc4C(F)(F)F)c(C(=O)N(C)C)s3)c2cc1OC", 0.01]
]}
